experiment: Compound remaining in PBS buffer after 5 days; assay type: physicochemical; conditions: read-out: Stability
assay readout: remaining at 120 h

Task item: Reported remaining at 120 h, molecule Cn1nnc(-c2c(F)cc(Cl)cc2-c2cnc(CNC(=O)N(O)C3CCC(F)(F)CC3)c(F)c2)n1 : ____
Reply: > 99%

###

test: Apparent permeability from basolateral to apical side of human Caco-2 cell; assay type: ADME, cell-based
assay readout: Papp B→A (×10⁻⁶ cm/s)
Numbers only, in ×10⁻⁶ cm/s.

Task item: Reported Papp B→A, compound Cn1nnc(-c2c(F)cc(Cl)cc2-c2cnc(CNC(=O)N(O)C3CCC(F)(F)CC3)c(F)c2)n1 : ____
Reply: 43
